The values you see were collected from ChEMBL document CHEMBL1124584.

System: BT-20
assay_method_text: Inhibitory activity against proliferation of BT-20 cells in presence of TPE at 10e-5 M concentration.
Format: functional
particulars: Homo sapiens
# maps each entry to its IC30
quantity_name: IC30

line_notation=N#C/C(=C(/c1ccccc1)c1ccc(O)cc1)c1ccc(O)cc1 measured_on=BT-20 quantity_name=IC30 observed_measurement="9.4 µM"
line_notation=CN(C)c1ccc(C(=C(C#N)c2ccccc2)c2ccc(N(C)C)cc2)cc1 measured_on=BT-20 quantity_name=IC30 observed_measurement="10 µM"
line_notation=CCN(CC)CCOc1ccc(C(C#N)=C(c2ccccc2)c2ccccc2)cc1 measured_on=BT-20 quantity_name=IC30 observed_measurement="9.7 µM"
line_notation=CCN(CC)CCOc1ccc(/C(=C(/C#N)c2ccccc2)c2ccc(O)cc2)cc1 measured_on=BT-20 quantity_name=IC30 observed_measurement="6.4 µM"
line_notation=N#C/C(=C(\c1ccccc1)c1ccc(O)cc1)c1ccc(O)cc1 measured_on=BT-20 quantity_name=IC30 observed_measurement="7.2 µM"
